System: Leucine-rich repeat serine/threonine-protein kinase 2 (Homo sapiens) | Read-out: IC50 | Origin: multiple publications

Recorded IC50, per entry:
CCc1cc(N2CCN3CCC[C@@H]3C2)ccc1Nc1ncc(C(F)(F)F)c(NCCCN2CCCOC2=O)n1
100 to 300 nM
COc1cc(S(=O)(=O)N2CCOCC2)ccc1Nc1cc(NCCS(C)(=O)=O)c2c(C#N)c[nH]c2n1
< 100 nM

Lookup: Record request: IC50 value, item `N#Cc1c[nH]c2nc(N)cc(-c3ccccc3)c12`
Found: 216 nM

Lookup: One more molecule: `CC1(C)CCC(=O)N1CCCNc1nc(Nc2cnn(C3CCN(C4CC4)CC3)c2)ncc1C1CC1`
Found: > 600 nM

Lookup: Then `Cc1cc(-c2cn(C)cn2)ccc1Nc1ncc(C(F)(F)F)c(NCCCN2CCOCCC2=O)n1` ?
Found: 1 to 100 nM

Lookup: Would you mind doing `CNc1cc(Nc2ccc(S(C)(=O)=O)cc2OC)nc2[nH]cc(C(F)(F)F)c12` as well?
Found: 301 to 1000 nM

Lookup: Also check `CCc1cc(N2CCN(C)CC2)c(F)cc1Nc1ncc(C(F)(F)F)c(NCCCN2CCCOCC2=O)n1`
Found: 1 to 100 nM

Lookup: `O=C1Cc2ccc(-c3ccc4nc(NC(=O)[C@@H]5C[C@@H]5F)cn4c3)cc2N1` , same question.
Found: > 1000 nM
